tested on: Plasmodium falciparum; assay: Primary screen in NF54 nanoGlo assay, in single point, at 2uM, 72h; a lower Z score goes with more inhibition; assay type: functional, Erythrocyte; details: timepoint 72 hour
The campaign covered roughly 150,000 compounds. About 540 (0.36%) showed an effect of 50% or more. The list comes from a sample in which strong results are over-represented; it also holds close analogues and randomly drawn compounds.
# cutoff 0.3 applies to Z score; >= gives rule met, < gives rule not met

| molecule | category |
| --- | --- |
| O=C1CCC(C(=O)N2CCC[C@H]2c2ccncc2)=NN1c1ccccc1 | rule met |
| CCOc1ccccc1C(=O)N1CCC[C@](c2nnnn2CCC(C)C)(N(C)C)C1 | rule not met |
| Cc1nncn1C1CCN(S(=O)(=O)c2ccc(Cl)cc2)CC1 | rule met |
| Cc1oc(-c2ccc(C(=O)NCCN(C)C)cc2)nc1CN1CCc2ccccc21 | rule met |
| COC(=O)C1=C(c2ccccc2)S/C(=C2/C(=S)C(C)(C)Nc3ccc(C)cc32)S1 | rule met |
| CCN(CC)c1nc2cc(C(=O)NCc3ccc(C)cc3)ccc2c(=O)n1Cc1ccccc1 | rule not met |
| Cc1ccsc1C(=O)NCCNc1ncccn1 | rule met |
| Clc1ccc(COc2ccc(Br)cc2CNc2ccc(-c3nc4ccccc4o3)cc2)c(Cl)c1 | rule met |
| c1cc(-c2nc3ccccc3o2)cc(-c2nc3ccccc3o2)c1 | rule met |
| CCC[C@H](NC1CCN(C(=O)OC)CC1)C1CC1 | rule not met |
| c1ccc2c[n+](Cc3ccc4ccccc4n3)ccc2c1 | rule not met |
| CC[C@H](C)N1CC(=O)N(c2ccns2)C1=O | rule met |
| Cc1ccc2nc(CN3CCS(=O)(=O)C(C)C3C)cn2c1 (stereo not given) | rule met |
| Cc1ccc(C(=O)Nc2ncn(Cc3c(F)cccc3Cl)n2)cc1 | rule met |
| Cc1nn(C(C)C)c(C)c1CN(C)C(=O)c1cc(C#N)c[nH]1 | rule not met |
